# MEASURED_ON: Oatp1b2 (Mus musculus)
# Sequence (Q9JJL3 1-689): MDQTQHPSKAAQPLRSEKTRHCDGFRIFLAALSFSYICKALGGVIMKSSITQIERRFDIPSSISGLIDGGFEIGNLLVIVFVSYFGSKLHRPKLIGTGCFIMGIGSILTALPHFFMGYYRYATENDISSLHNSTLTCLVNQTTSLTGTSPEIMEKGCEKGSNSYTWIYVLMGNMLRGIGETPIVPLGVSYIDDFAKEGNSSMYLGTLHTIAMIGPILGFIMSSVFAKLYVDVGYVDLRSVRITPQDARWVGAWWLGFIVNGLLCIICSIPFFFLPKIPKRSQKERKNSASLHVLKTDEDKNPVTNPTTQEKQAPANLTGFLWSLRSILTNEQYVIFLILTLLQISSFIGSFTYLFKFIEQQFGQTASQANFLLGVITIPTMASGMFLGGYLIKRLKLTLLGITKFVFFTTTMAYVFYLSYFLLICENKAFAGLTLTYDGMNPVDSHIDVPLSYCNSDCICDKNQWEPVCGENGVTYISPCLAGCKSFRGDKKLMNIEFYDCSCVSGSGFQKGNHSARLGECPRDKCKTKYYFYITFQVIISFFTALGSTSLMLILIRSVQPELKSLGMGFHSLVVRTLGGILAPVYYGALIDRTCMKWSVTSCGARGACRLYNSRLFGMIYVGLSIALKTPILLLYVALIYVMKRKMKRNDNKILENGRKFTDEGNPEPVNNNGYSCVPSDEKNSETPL
# ASSAY: Untargeted metabolomics of plasma from untreated wild-type and Oatp1b2(−/−) mice
# MEASUREMENT_PARAMETERS: plasma of untreated Oatp1b2-deficient (KO) vs wild-type (WT) mice; semi-quantitative; positive = higher in KO; n = 6 per group
ASSAY_ENDPOINT: Fold of Change KO/WT

Take a look at these entries with their results.
>  <COMPOUND>
C[C@H](CCC(=O)O)[C@H]1CC[C@H]2[C@@H]3C(=O)C[C@@H]4C[C@H](O)CC[C@]4(C)[C@H]3C[C@H](O)[C@]12C [7-ketodeoxycholate]

>  <Fold of Change KO/WT>
6.23

$$$$
>  <COMPOUND>
C=CC1=C(C)/C(=C/c2[nH]c(Cc3[nH]c(/C=C4\NC(=O)C(C)=C4C=C)c(C)c3CCC(=O)O)c(CCC(=O)O)c2C)NC1=O [bilirubin (Z,Z)]

>  <Fold of Change KO/WT>
5.25

$$$$
>  <COMPOUND>
O=C(O)CNC(=O)/C=C/c1ccccc1

>  <Fold of Change KO/WT>
1.99

$$$$

Parameters: items (list). Returns: Fold of Change KO/WT for each item.
1. CCCCC/C=C\C/C=C\CCCCCCCC(=O)O[C@H](CC(=O)[O-])C[N+](C)(C)C
2. CCCCC/C=C\C/C=C\CCCCCCCC(=O)OC[C@@H](O)COP(=O)(O)OC1[C@H](O)[C@H](O)C(O)[C@H](O)[C@H]1O (stereo partly drawn)
3. CCCCCCCC/C=C\CCCCCCCC(=O)O[C@H](COC(=O)CCCCCCCCCCCCCCC)COP(=O)([O-])OCC[N+](C)(C)C

Result:
1.62
1.65
1.30

====

# MEASURED_ON: Oatp1b2 (Mus musculus)
# ASSAY: Untargeted metabolomics of plasma from untreated wild-type and Oatp1b2(−/−) mice
# MEASUREMENT_PARAMETERS: plasma of untreated wild-type mice; raw area counts rescaled to median = 1
ASSAY_ENDPOINT: Mean value WT

Take a look at these entries with their results.
>  <COMPOUND>
CCCCC/C=C\C/C=C\CCCCCCCC(=O)OC[C@@H](O)COP(=O)(O)OCCN

>  <ENDPOINT_RESULT>
.736

$$$$
>  <COMPOUND>
CCCCC/C=C\C/C=C\C/C=C\C/C=C\CCCC(=O)O[C@H](COC(=O)CCCCCCC/C=C\C/C=C\CCCCC)COP(=O)(O)OCCN

>  <ENDPOINT_RESULT>
.854

$$$$
>  <COMPOUND>
CC(=O)N[C@@H](CC(=O)c1ccccc1N)C(=O)O

>  <ENDPOINT_RESULT>
.827

$$$$
>  <COMPOUND>
C=CC1=C(C)/C(=C/C2=NC(=C\c3[nH]c(/C=C4\NC(=O)C(C)=C4C=C)c(C)c3CCC(=O)O)/C(CCC(=O)O)=C2C)NC1=O

>  <ENDPOINT_RESULT>
.450

$$$$
>  <COMPOUND>
CCCCCCCCCCCCCCCCCC(=O)OC[C@@H](O)COP(=O)(O)OCC(O)CO (some centres unmarked)

>  <ENDPOINT_RESULT>
.423

$$$$
>  <COMPOUND>
C[C@H](CCC(=O)O)[C@H]1CC[C@H]2[C@@H]3[C@@H](O)C[C@@H]4C[C@H](O)CC[C@]4(C)[C@H]3C[C@H](O)[C@]12C [ursocholate]

>  <ENDPOINT_RESULT>
.151

$$$$

Parameters: items (list). Returns: Mean value WT for each item.
1. O=C(O)CCCCCCCCC(O)CC(=O)O (centres unmarked) [3-hydroxydodecanedioate]
2. CCCCCCC(=O)NCC(=O)O

Result:
1. .380
2. .868
